target: Proteasome Macropain subunit (Homo sapiens) (UniProt P49721); assay: Inhibition of trypsin-like activity of human 20S proteasome at 50 uM using Boc-Leu-Arg-Arg-AMC as substrate measured for 10 mins by fluorescence assay relative to control
Sequence (P49721 whole entry): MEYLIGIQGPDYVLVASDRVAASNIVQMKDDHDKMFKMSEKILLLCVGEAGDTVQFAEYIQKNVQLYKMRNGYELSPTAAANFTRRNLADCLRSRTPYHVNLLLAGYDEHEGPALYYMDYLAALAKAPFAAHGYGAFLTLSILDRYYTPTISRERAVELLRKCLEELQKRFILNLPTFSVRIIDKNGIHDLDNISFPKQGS
Non-standard residues stand in square brackets, D forms with d. Residues, ends and D or L forms follow the SMILES beside them. ξ: configuration not given here. *: point of attachment. Cbz = O=C(OCc1ccccc1)*; ξI = CCC(C)C(N)C(=O)O
property.measured: inhibition (%)

Some compounds with recorded inhibition:
Query: Please give the measured inhibition for this compound: CC(C)CC(NC(=O)C(CO)NC(=O)OCc1ccccc1)C(=O)NC(Cc1ccc(O)cc1)C(N)=O (stereo not drawn) (Cbz-Ser-Leu-Tyr-NH2; configuration not given here)
Reply: 29

Query: Please give the measured inhibition for this compound: "NS(=O)(=O)c1ccc(NC(=O)/C=C/c2ccccc2)cc1"
Reply: 11

A = COC(=O)[C@H](Cc1ccc(O)cc1)NC(=O)[C@H](CC(C)C)NC(=O)[C@H](CO)NC(=O)OCc1ccccc1 (Cbz-Ser-Leu-Tyr-OMe)
B = CCC(C)C(NC(=O)OCc1ccccc1)C(=O)N[C@@H](Cc1ccc(O)cc1)C(=O)O (some centres undefined) (Cbz-[ξI]-Tyr-OH)
Query: Please state the entry with greater inhibition among A and B . State the label of the item chosen.
Reply: A
(A: 22%, B: 11%)
